- protocol text: Cytotoxicity against Homo sapiens (human) SMMC-7404 cells assessed as cell viability after 72 hr by MTT assay
- Assay type: functional, cell-based
Readings of IC50 for the listed compounds
measured parameter: IC50 (µM)

CC(C)CCC[C@@H](C)[C@H]1CC[C@H]2[C@@H]3C/C(=N/O)C4C[C@@H](OS(=O)(=O)[O-])CC[C@]4(C)[C@H]3CC[C@]12C.[Na+] (some centres undefined) :: 12.9
CC(C)CCC[C@@H](C)[C@H]1CC[C@H]2[C@@H]3C[C@H](OS(=O)(=O)[O-])C4C/C(=N/O)CC[C@]4(C)[C@H]3CC[C@]12C.[Na+] (some centres undefined) :: 10.2
CC(C)CCC[C@@H](C)[C@H]1CC[C@H]2[C@@H]3C/C(=N/O)C4=C[C@@H](OS(=O)(=O)[O-])CC[C@]4(C)[C@H]3CC[C@]12C.[Na+] :: 62.2

====

- Test system: HeLa
- protocol text: Cytotoxicity against Homo sapiens (human) HeLa cells assessed as cell viability after 72 hr by MTT assay
- Format: functional, cell-based
measured parameter: IC50 (µM)

CC(C)CCC[C@@H](C)[C@H]1CC[C@H]2[C@@H]3C/C(=N/O)C4=C[C@@H](OS(=O)(=O)[O-])CC[C@]4(C)[C@H]3CC[C@]12C.[Na+] :: 25.3
CC(C)CCC[C@@H](C)[C@H]1CC[C@H]2[C@@H]3C[C@H](OS(=O)(=O)[O-])C4C/C(=N/O)CC[C@]4(C)[C@H]3CC[C@]12C.[Na+] (some centres undefined) :: 12.5
CC(C)CCC[C@@H](C)[C@H]1CC[C@H]2[C@@H]3C/C(=N/O)C4C[C@@H](OS(=O)(=O)[O-])CC[C@]4(C)[C@H]3CC[C@]12C.[Na+] (some centres undefined) :: 9.6
CC[C@H](/C=C/[C@@H](C)[C@H]1CC[C@H]2[C@@H]3C/C(=N/O)C4C[C@@H](OS(=O)(=O)[O-])CC[C@]4(C)[C@H]3CC[C@]12C)C(C)C.[Na+] (some centres undefined) :: 14.3
